molecular target: human alpha/beta hydrolase domain 6 (hABHD6) (Homo sapiens, UniProt Q9BV23, DEL38-40); construct: gene ABHD6; hΔ29-3-ABHD6 (first 29 residues and Y38YW deleted, N-terminal His6) for MS; full-length hABHD6 in solubilized E. coli membrane fraction for IC50; assay: MALDI-TOF MS of tryptic digest showing +[…] Da adduct on purified enzyme; fluorometric AHMMCE inhibition assay; assay type: binding
Sequence (Q9BV23 with tags, fused parts or gaps DEL38-40): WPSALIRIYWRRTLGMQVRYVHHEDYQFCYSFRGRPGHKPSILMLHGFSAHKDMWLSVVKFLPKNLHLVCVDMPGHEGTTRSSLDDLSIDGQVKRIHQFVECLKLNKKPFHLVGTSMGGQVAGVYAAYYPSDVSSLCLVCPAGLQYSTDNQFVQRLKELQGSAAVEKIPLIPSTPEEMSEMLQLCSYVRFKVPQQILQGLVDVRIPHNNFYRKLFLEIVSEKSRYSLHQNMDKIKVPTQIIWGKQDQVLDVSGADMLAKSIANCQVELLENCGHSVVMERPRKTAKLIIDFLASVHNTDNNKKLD
pIC50: −log10 of the molar value.

{"columns": ["Mol", "pIC50"],
 "data": [
  ["CN(C)C(=O)n1nnc(Cc2ccc(-c3ccccc3)cc2)n1", 9.05]
]}

Origin of the recorded values: paper PMC6351631
